- Measurement Target: Nitric oxide synthase, inducible (Homo sapiens)
- Sequence (P35228 whole entry): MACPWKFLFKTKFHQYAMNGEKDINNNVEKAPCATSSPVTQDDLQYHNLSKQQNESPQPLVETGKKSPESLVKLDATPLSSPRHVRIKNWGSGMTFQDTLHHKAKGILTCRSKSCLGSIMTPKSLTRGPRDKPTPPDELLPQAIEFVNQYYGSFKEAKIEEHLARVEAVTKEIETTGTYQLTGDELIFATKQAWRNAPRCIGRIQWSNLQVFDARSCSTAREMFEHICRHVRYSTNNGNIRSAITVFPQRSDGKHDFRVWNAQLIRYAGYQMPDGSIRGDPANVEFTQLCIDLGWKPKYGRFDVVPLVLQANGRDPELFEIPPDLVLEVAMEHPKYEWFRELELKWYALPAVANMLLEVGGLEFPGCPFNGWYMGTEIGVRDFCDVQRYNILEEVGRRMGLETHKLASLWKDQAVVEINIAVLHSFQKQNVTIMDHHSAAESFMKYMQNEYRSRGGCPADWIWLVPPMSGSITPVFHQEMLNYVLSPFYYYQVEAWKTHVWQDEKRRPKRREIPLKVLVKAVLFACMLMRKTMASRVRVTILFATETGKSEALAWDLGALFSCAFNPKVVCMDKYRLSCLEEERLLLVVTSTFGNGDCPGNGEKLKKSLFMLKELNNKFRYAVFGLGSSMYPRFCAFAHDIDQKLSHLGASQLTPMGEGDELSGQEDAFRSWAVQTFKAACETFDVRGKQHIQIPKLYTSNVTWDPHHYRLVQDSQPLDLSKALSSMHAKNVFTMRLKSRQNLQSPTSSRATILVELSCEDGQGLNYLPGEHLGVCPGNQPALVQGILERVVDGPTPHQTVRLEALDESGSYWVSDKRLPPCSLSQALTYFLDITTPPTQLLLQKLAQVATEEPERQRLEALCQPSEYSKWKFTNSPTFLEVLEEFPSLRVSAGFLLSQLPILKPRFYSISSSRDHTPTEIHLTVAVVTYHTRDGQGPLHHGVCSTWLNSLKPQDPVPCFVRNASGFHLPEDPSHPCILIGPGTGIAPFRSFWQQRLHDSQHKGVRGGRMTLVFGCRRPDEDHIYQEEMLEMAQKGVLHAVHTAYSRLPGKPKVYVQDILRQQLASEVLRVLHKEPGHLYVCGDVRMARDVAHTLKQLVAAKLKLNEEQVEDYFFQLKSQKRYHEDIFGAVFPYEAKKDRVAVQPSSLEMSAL
- Experiment: Inhibition of inducible nitric oxide synthase in activated macrophages
Label 1 (yes) when IC50 is strictly below 6 µM; otherwise label 0 (no).

> print(dat)
                                   molecule  assigned.category
1  CC1(C)CC[C@]2(C(=O)O)CC[C@]3(C)C(=CC(=O)C4[C@@]5(C)C=C(C#N)C(=O)C(C)(C)C5CC[C@]43C)C2C1 (stereo partly specified)            1 (yes)
2  CC1(C)CC[C@]2(C(=O)O)CC[C@]3(C)C(=CCC4[C@@]5(C)C=C(C#N)C(=O)C(C)(C)C5CC[C@]43C)C2C1 (stereo partly specified)            1 (yes)
3  CC1(C)CC[C@]2(C(=O)O)CC[C@]3(C)C(=CCC4[C@@]5(C)C=CC(=O)C(C)(C)C5CC[C@]43C)C2C1 (stereo partly specified)            1 (yes)
4  CC1(C)CC[C@]2(C(=O)O)CC[C@]3(C)C(=CC[C@@H]4[C@@]5(C)CCC(=O)C(C)(C)[C@@H]5CC[C@]43C)[C@@H]2C1             0 (no)
5  CC1(C)CC[C@]2(C(=O)O)CC[C@]3(C)C(=CC[C@@H]4[C@@]5(C)CC[C@H](O)C(C)(C)[C@@H]5CC[C@]43C)[C@@H]2C1             0 (no)
6  CC1(C)CC[C@]2(C(=O)O)CC[C@]3(C)C(C(=O)CC4[C@@]5(C)C=CC(=O)C(C)(C)C5CC[C@]43C)C2C1 (stereo partly specified)            1 (yes)
